Just for reference, PubChem BioAssay (NCI) is where these values come from.

System: UO-31 renal
measurement-description: NCI-60 one-dose screen, 48 h (100 = growth as untreated, 0 = no growth, -100 = all killed)
experimental-parameters: 10 µM unless noted
The panel holds about 83,000 compounds, 20% with a hit somewhere; the sample as a whole holds those more often.
Measured growth values are reported for all entries that follow.
API: value field is a number in %; no unit string.

- O=C1C(=O)N(Cc2ccc(-c3ccccc3)cc2)c2ccc(OC(F)(F)F)cc21: 45.5

For reference, reported growth for CC/C(=C(/c1ccc(Cl)cc1)c1ccc(OCCN(C)C)cc1)c1ccc(Cl)cc1 stands at 64.3

growth reported for this compound O=C(COc1ccc(-c2nc3cc(Cl)c(Cl)cc3[nH]2)cc1)N=Nc1c(O)[nH]c2ccc(Cl)cc12 : 94.4

Lab note: N#CC(C#N)N=Nc1ccc(Br)cc1 gave growth of 2.16

Entry CCOC(=O)c1cc2c(n1C)-c1nc(NC(C)=O)sc1CCC2 — recorded growth = 43.2

Briefly, growth measured for O=C(Nc1ccccc1O)c1ccc(CNC(=O)c2sccc2Nc2ccnc(C(F)(F)F)c2)cc1 : 27.2

The compound listed as Nc1[nH]n2cc(-c3ccccc3)nc2c1N=Nc1ccc(S(N)(=O)=O)cc1 has a reported growth of 19.5

Looking up CCN(CC)CCCCCNc1cc(OC(=O)c2ccc(Cl)cc2)cc2cccnc12 , I found its growth recorded as 94.7

// COC12C=C/C(=C(/C(=O)OCc3ccncn3)C(=O)CCCCCCCCC3(OC)C=C/C(=C(/C(=O)OCc4ccncn4)C(=O)CCCCCCCC1)O3)O2 : growth value = -50.7
